biological target: Cyclin-dependent kinase 5 (Homo sapiens); settings: at 0.1 µM;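 also: enzyme tested as the CDK5/p35 complex, values are mean percent inhibition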

Compound | Tested on | inhibition [%]
CCn1c(-c2nonc2N)nc2c(C#CC(C)(C)O)nc(CN3CCCC3)cc21 | Cyclin-dependent kinase 5 (Homo sapiens) | 1.06
COc1ccc2cc(-c3c(-c4ccncc4)nc(-c4ccc([S+](C)[O-])cc4)n3C)ccc2c1 (configuration not stated) | Cyclin-dependent kinase 5 (Homo sapiens) | 0.96
CCn1c(-c2nonc2N)nc2cncc(C(=O)N3CC[C@H](N)C3)c21 | Cyclin-dependent kinase 5 (Homo sapiens) | 0.46
Cc1ccc(NC(=O)c2ccnc(N3CCCC3)c2)cc1-c1ccc(C(=O)NCC2CC2)cc1 | Cyclin-dependent kinase 5 (Homo sapiens) | 2.54
CCn1c(-c2nonc2N)nc2c(N3CCCC3)nccc21 | Cyclin-dependent kinase 5 (Homo sapiens) | 1.73
Cc1cccc(-c2n[nH]cc2-c2ccc3ncccc3n2)n1 | Cyclin-dependent kinase 5 (Homo sapiens) | -0.23
COc1cc2ncn(-c3cc(O[C@H](C)c4ccccc4Cl)c(C(N)=O)s3)c2cc1OC | Cyclin-dependent kinase 5 (Homo sapiens) | 0.86
NC(=O)c1cccc(Nc2nccc(Nc3cccc4[nH]ncc34)n2)c1 | Cyclin-dependent kinase 5 (Homo sapiens) | 1.84
O=C1NC(=O)C(c2ccccc2Cl)=C1Nc1cccc(O)c1 | Cyclin-dependent kinase 5 (Homo sapiens) | 4.62
CC1=C(C(=O)Nc2ccc3[nH]ncc3c2)C(c2ccc(Cl)c(Cl)c2)CC(=O)N1 (configuration not stated) | Cyclin-dependent kinase 5 (Homo sapiens) | -0.73
N#Cc1c(NC(=O)c2cccc3ccccc23)sc2c1CCCC2 | Cyclin-dependent kinase 5 (Homo sapiens) | 1.3
COc1cc(C)c(NC(=O)CN(C)C)cc1Nc1nc(Nc2cccc(F)c2C(N)=O)c2cc[nH]c2n1 | Cyclin-dependent kinase 5 (Homo sapiens) | -0.59
c1cnn2ncc(-c3ccnc(Nc4ccc5c(c4)OCCO5)n3)c2c1 | Cyclin-dependent kinase 5 (Homo sapiens) | 57.4
O=C1NC(=O)C(N2CCc3ccccc32)=C1c1ccc(Cl)cc1 | Cyclin-dependent kinase 5 (Homo sapiens) | 2.06
COc1ccc(-c2ccncc2)cc1C(N)=O | Cyclin-dependent kinase 5 (Homo sapiens) | 0.56
COc1cc2c(cc1Nc1nc(N3CCc4ccccc43)c3cc[nH]c3n1)N(C(=O)CN(C)C)CC2 | Cyclin-dependent kinase 5 (Homo sapiens) | 0.44
COc1cc2ncn(-c3cc(OCc4ccccc4C(F)(F)F)c(C(N)=O)s3)c2cc1OC | Cyclin-dependent kinase 5 (Homo sapiens) | -3.58
CCN1CCC(CC(=O)Nc2n[nH]c3nc(-c4cccs4)c(Br)cc23)CC1 | Cyclin-dependent kinase 5 (Homo sapiens) | 0.96
COC(=O)Nc1nc2cc(Oc3cccc(NC(=O)Nc4cc(C(F)(F)F)ccc4F)c3)ccc2[nH]1 | Cyclin-dependent kinase 5 (Homo sapiens) | 0.65
Nc1nc(-c2ccc3c(c2)C(=Cc2cc(Br)c(O)c(Br)c2)C(=O)N3)cs1 | Cyclin-dependent kinase 5 (Homo sapiens) | 1.35
CCc1cccc(NC(=O)Nc2ccc(Oc3ccc4nc(NC(=O)OC)[nH]c4c3)cc2)c1 | Cyclin-dependent kinase 5 (Homo sapiens) | -0.16
O=C1NC(=O)C(c2cccc(Cl)c2)=C1Nc1ccc(O)c(Cl)c1 | Cyclin-dependent kinase 5 (Homo sapiens) | 1.36
CN1CCC(C(=O)Nc2n[nH]c3nnc(-c4ccccc4)cc23)CC1 | Cyclin-dependent kinase 5 (Homo sapiens) | 1.11
Nc1ncnc2occ(-c3ccc(NC(=O)Nc4cccc(C(F)(F)F)c4)cc3)c12 | Cyclin-dependent kinase 5 (Homo sapiens) | 0.37
CCn1c(-c2nonc2N)nc2cnc(Oc3cccc(NC(=O)c4ccc(OCCN5CCOCC5)cc4)c3)cc21 | Cyclin-dependent kinase 5 (Homo sapiens) | -0.26
COC(=O)Nc1nc2cc(Oc3ccc(NC(=O)Nc4cccc(C(=O)O)c4)cc3)ccc2[nH]1 | Cyclin-dependent kinase 5 (Homo sapiens) | -1.87
NC(=O)c1ccc(-c2nc(-c3ccccn3)c(-c3ccc4c(c3)OCO4)[nH]2)cc1 | Cyclin-dependent kinase 5 (Homo sapiens) | 0.55
COc1cc(C=NNc2ncnc3c2cnn3-c2ccccc2)ccc1O | Cyclin-dependent kinase 5 (Homo sapiens) | 4
Cc1nnc(-c2ccc(C)c(-c3ccc(C(=O)Nc4cccc(C#N)c4)cc3)c2)o1 | Cyclin-dependent kinase 5 (Homo sapiens) | 0.65
Fc1cccc(COc2ccc(Nc3ncnc4sc(-c5cccs5)cc34)cc2Cl)c1 | Cyclin-dependent kinase 5 (Homo sapiens) | 0.55
COc1ccccc1Nc1ncc(-c2ccccc2)o1 | Cyclin-dependent kinase 5 (Homo sapiens) | 0.04
NCc1ccc(-c2nc(-c3ccc(Cl)c(O)c3)c(-c3ccncc3)[nH]2)cc1 | Cyclin-dependent kinase 5 (Homo sapiens) | 1.65
